pKd: −log10 of the molar value.
Please respond with reported pKd for every item in the list.

Incoming: Report measured pKd on RAF kinases (Homo sapiens (Human), UniProt P04049); entry: COCC(C)(C)c1cc(NC(=O)Nc2cccc(Oc3ncnc4cc(OC)c(OC)cc34)c2)no1 [Ex 130]
Sequence (P04049 whole entry): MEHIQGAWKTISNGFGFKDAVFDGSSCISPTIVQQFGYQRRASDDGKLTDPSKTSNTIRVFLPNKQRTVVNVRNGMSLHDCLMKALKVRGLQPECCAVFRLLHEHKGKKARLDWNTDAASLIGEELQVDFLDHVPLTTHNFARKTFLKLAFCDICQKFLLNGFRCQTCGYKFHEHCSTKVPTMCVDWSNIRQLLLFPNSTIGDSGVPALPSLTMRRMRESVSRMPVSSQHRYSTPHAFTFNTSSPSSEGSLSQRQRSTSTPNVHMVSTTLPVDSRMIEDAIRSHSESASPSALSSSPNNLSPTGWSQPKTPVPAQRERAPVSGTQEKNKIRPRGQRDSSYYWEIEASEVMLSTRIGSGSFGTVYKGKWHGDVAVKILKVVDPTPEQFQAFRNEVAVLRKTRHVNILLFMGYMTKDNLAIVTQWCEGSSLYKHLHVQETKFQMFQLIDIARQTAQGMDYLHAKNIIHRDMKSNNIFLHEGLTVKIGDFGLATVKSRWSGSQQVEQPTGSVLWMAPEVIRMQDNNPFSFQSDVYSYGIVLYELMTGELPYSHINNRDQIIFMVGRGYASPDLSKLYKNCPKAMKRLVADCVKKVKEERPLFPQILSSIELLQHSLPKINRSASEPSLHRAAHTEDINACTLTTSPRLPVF
Outgoing: < 6.00

Incoming: Send back RAF kinases (Homo sapiens (Human), UniProt P04049) pKd of COc1cc2ncnc(Oc3cccc(NC(=O)Nc4ccc(C(F)(F)F)cc4)c3)c2cc1OC [Ex 183] only.
Outgoing: > 6.60

Incoming: State the measured pKd (RAF kinases (Homo sapiens (Human), UniProt P04049)) of COc1cc2ncnc(Sc3cccc(NC(=O)Nc4cc(C(C)(C)C)on4)c3)c2cc1OCCCN1CCOCC1 [Ex 63]
Outgoing: > 6.60

Incoming: Would you please give the reported pKd of COc1cc2ncnc(Oc3cccc(NC(=O)Nc4cc(C(C)(C)C)on4)c3)c2cc1O[C@H]1CCN(C(=O)OC(C)(C)C)C1 [Ex 108] with RAF kinases (Homo sapiens (Human), UniProt P04049)?
Outgoing: < 6.00

Incoming: Tell me pKd of COc1cc2ncnc(Oc3cccc(NC(=O)Nc4cccc(C(F)(F)F)c4)c3)c2cc1OC [Ex 181] when tested on RAF kinases (Homo sapiens (Human), UniProt P04049).
Outgoing: > 6.60

Incoming: Supply pKd measured with RAF kinases (Homo sapiens (Human), UniProt P04049) for COc1cc2ncnc(Oc3cccc(NC(=O)Nc4cc(C(F)(F)F)ccn4)c3)c2cc1OC [Ex 141] .
Outgoing: > 6.60

Incoming: Report its pKd with RAF kinases (Homo sapiens (Human), UniProt P04049) as the test system: COc1cc2ncnc(Oc3cccc(NC(=O)Nc4ccc(OC)c(C(F)(F)F)c4)c3)c2cc1OC [Ex 138]
Outgoing: > 6.60

====

Tested on: panel of 290 distinct kinases (321 in the larger panel), excluding mutant variants
condition_notes: kinase selectivity score, value marked * (larger kinase panel); class symbols
readout_type: S35

[[record]]
molecule = "COc1cc2ncnc(Oc3cccc(NC(=O)Nc4cccc(C(C)(C)C)c4)c3)c2cc1OC [Ex 118]"
readout_type = "S35"
readout_value = "C* (0.20 < C ≦ 0.40)"

[[record]]
molecule = "CCOC(=O)Cn1nc(C(C)(C)C)cc1NC(=O)Nc1cccc(Sc2ncnc3cc(OC)c(OC)cc23)c1 [Ex 195]"
readout_type = "S35"
readout_value = "C* (0.20 < C ≦ 0.40)"


====

target: wild type BRAF kinase (Homo sapiens (Human), UniProt P15056)
Sequence (P15056 whole entry): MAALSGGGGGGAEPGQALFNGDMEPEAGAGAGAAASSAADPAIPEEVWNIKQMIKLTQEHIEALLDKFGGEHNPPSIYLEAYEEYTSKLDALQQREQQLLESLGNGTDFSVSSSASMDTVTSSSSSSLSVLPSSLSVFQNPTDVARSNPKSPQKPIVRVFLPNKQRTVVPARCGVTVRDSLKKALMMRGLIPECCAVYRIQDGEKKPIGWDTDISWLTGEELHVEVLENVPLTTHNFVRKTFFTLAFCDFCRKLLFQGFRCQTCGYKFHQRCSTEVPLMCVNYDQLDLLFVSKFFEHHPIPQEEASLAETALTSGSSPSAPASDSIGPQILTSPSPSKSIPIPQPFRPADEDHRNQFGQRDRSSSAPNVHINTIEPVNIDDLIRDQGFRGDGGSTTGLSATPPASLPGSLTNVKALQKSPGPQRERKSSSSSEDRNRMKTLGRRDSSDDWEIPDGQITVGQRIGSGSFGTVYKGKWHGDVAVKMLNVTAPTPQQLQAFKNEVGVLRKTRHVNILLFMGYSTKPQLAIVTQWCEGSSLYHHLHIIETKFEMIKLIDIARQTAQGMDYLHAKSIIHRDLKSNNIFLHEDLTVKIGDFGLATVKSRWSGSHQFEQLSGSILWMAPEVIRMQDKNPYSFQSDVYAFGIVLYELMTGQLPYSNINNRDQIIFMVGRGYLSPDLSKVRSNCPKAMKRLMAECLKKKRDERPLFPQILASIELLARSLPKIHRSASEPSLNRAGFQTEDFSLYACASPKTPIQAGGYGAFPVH
condition_notes: read-out: BRAF WT Kd, class symbols
pKd: −log10 of the molar value. Counter-ions that a name gives are not always drawn.
What pKd was measured for each of the following?

Incoming: Indicate its recorded pKd; the compound in question is COc1cc2ncnc(Sc3cccc(NC(=O)Nc4cc(C(C)(CF)CF)nn4-c4ccccc4)c3)c2cc1OC [Ex 196]
Outgoing: < 6.00

Incoming: Provide pKd value for the following compound: COc1ccc(NC(=O)Nc2cccc(Oc3ncnc4cc(OC)c(OC)cc34)c2)cc1Cl [Ex 180]
Outgoing: > 6.60

Incoming: Look up and report measured pKd for this entry: CCOc1cc2ncnc(Oc3cccc(NC(=O)Nc4cc(C(C)(C)C)on4)c3)c2cc1OC [Ex 6, hydrochloride]
Outgoing: < 6.00

Incoming: Provide only the value of recorded pKd for COc1cc2ncnc(Oc3cccc(NC(=O)Nc4cc(C(F)(F)F)ccn4)c3)c2cc1OC [Ex 141]
Outgoing: > 6.60

Incoming: Indicate the recorded pKd value for this compound: COCC(C)(C)c1cc(NC(=O)Nc2cccc(Oc3ncnc4cc(OC)c(OC)cc34)c2)no1 [Ex 130]
Outgoing: < 6.00

Incoming: Name the recorded pKd of the item COc1cc2nc(Cl)nc(Sc3cccc(NC(=O)Nc4cc(C(C)(C)C)on4)c3)c2cc1OC [Ex 89] in your answer.
Outgoing: < 6.00

Incoming: Report pKd, nothing else, for this compound: COc1cc2ncnc(Oc3cccc(NC(=O)Nc4cc(C(C)(C)C)on4)c3)c2cc1O[C@H]1CCN(C(=O)OC(C)(C)C)C1 [Ex 108]
Outgoing: < 6.00

Incoming: Return pKd (reported value) for this compound: COCC(C)(C)c1cc(NC(=O)Nc2cccc(Oc3ncnc4cc(OC)c(OC)cc34)c2)on1 [Ex 128]
Outgoing: < 6.00

Incoming: Give pKd for the following compound: COc1cc2ncnc(Oc3cccc(NC(=O)Nc4cc(C5(C(F)(F)F)CCC5)no4)c3)c2cc1OC [Ex 155]
Outgoing: < 6.00

Incoming: Note pKd for the compound shown: COCCOc1ccc2ncnc(Sc3cccc(NC(=O)Nc4cc(C(C)(C)C)on4)c3)c2c1 [Ex 87]
Outgoing: < 6.00

Incoming: Identify measured pKd corresponding to COc1cc2c(Oc3cccc(NC(=O)Nc4cc(C(C)(C)C)on4)c3)ncnc2cc1O[C@H]1CCN(CC(F)F)C1 [Ex 103]
Outgoing: < 6.00

Incoming: Find the measured pKd of COc1cc2ncnc(Oc3cccc(NC(=O)Nc4ccccc4)c3)c2cc1OC [Ex 182] and report it.
Outgoing: < 6.00

Incoming: Complete the entry with pKd for COc1cc2ncnc(Oc3cccc(NC(=O)Nc4cc(C(C)C)no4)c3)c2cc1OC [Ex 122]
Outgoing: > 6.60

Incoming: State its pKd: COc1cc2ncnc(Sc3cccc(NC(=O)Nc4cc(CN5CCOCC5)cc(C(F)(F)F)c4)c3)c2cc1OC [Ex 189]
Outgoing: < 6.00

Incoming: Write down pKd measured for item COc1cc2ncnc(Oc3cccc(NC(=O)Nc4cc(C(F)(F)F)n(C)n4)c3)c2cc1OC [Ex 165]
Outgoing: > 6.60

Incoming: Tell us which pKd value is on record for COCCOc1cc(NC(=O)Nc2cccc(Oc3ncnc4cc(OC)c(OC)cc34)c2)cc(C(F)(F)F)c1 [Ex 129]
Outgoing: < 6.00

Incoming: Check the records and state pKd for COc1cc2ncnc(Oc3cccc(NC(=O)Nc4cc(Cl)cc(C(F)(F)F)c4)c3)c2cc1OC [Ex 140]
Outgoing: < 6.00

Incoming: Given the compound CCOC(=O)Cn1nc(C(C)(C)C)cc1NC(=O)Nc1cccc(Sc2ncnc3cc(OC)c(OC)cc23)c1 [Ex 195] , write its reported pKd.
Outgoing: < 6.00

Incoming: Please give measured pKd of the following entry: COc1cc2ncnc(Oc3cccc(NC(=O)Nc4cc(C(C)(C)C)nn4C)c3)c2cc1OC [Ex 158]
Outgoing: < 6.00

====

Tested on: panel of 290 distinct kinases (321 in the larger panel), excluding mutant variants
condition_notes: kinase selectivity score, value marked * (larger kinase panel); class symbols
readout_type: S35

Here's what some known entries look like.
[[record]]
smiles_notation = "COc1cc2ncnc(Sc3cccc(NC(=O)Nc4cc(CN5CCOCC5)cc(C(F)(F)F)c4)c3)c2cc1OC"
readout_type = "S35"
readout_value = "C* (0.20 < C ≦ 0.40)"

[[record]]
smiles_notation = "COc1cc2ncnc(Oc3cccc(NC(=O)Nc4cc(C5(C(F)(F)F)CCC5)no4)c3)c2cc1OC"
readout_type = "S35"
readout_value = "C* (0.20 < C ≦ 0.40)"

[[record]]
smiles_notation = "COc1cc2ncnc(Oc3cccc(NC(=O)Nc4cc(C(C)(CF)CF)on4)c3)c2cc1OC"
readout_type = "S35"
readout_value = "C* (0.20 < C ≦ 0.40)"

[[record]]
smiles_notation = "COc1cc2c(Oc3cccc(NC(=O)Nc4cc(C(C)(C)C)on4)c3)ncnc2cc1O[C@H]1CCN(CC(F)F)C1"
readout_type = "S35"
readout_value = "C* (0.20 < C ≦ 0.40)"

[[record]]
smiles_notation = "COCCOc1cc(NC(=O)Nc2cccc(Sc3ncnc4cc(OC)c(OC)cc34)c2)ccc1C(F)(F)F"
readout_type = "S35"
readout_value = "B* (0.10 < B ≦ 0.20)"


Incoming: # lookup: panel of 290 distinct kinases (321 in the larger panel), excluding mutant variants S35, key = `COc1cc2ncnc(Sc3cccc(NC(=O)Nc4cc(C(C)C)on4)c3)c2cc1OC`
Outgoing: C* (0.20 < C ≦ 0.40)

Incoming: Under panel of 290 distinct kinases (321 in the larger panel), excluding mutant variants: report S35 of `COc1cc2ncnc(Oc3cccc(NC(=O)Nc4ccc(C(F)(F)F)cc4)c3)c2cc1OC` .
Outgoing: C* (0.20 < C ≦ 0.40)

====

Tested on: panel of 290 distinct kinases (321 in the larger panel), excluding mutant variants
condition_notes: kinase selectivity score, value marked * (larger kinase panel); class symbols
readout_type: S35

Use the examples below as a reference point.
[[record]]
smiles_notation = "COc1cc2ncnc(Oc3cccc(NC(=O)Nc4cc(C(F)(F)F)n(C)n4)c3)c2cc1OC"
readout_value = "C* (0.20 < C ≦ 0.40)"

[[record]]
smiles_notation = "COCCOc1cc2ncnc(Oc3cccc(NC(=O)Nc4ccc(OC)c(C(F)(F)F)c4)c3)c2cc1OC"
readout_value = "C* (0.20 < C ≦ 0.40)"

[[record]]
smiles_notation = "COc1cc2ncnc(Sc3cccc(NC(=O)Nc4cc(C5CCCC5)on4)c3)c2cc1OC"
readout_value = "C* (0.20 < C ≦ 0.40)"

[[record]]
smiles_notation = "COc1cc2ncnc(Oc3cccc(NC(=O)Nc4cc(C(C)(C)C#N)no4)c3)c2cc1OC"
readout_value = "C* (0.20 < C ≦ 0.40)"

[[record]]
smiles_notation = "COc1cc2c(Oc3cccc(NC(=O)Nc4cc(C(C)(C)C)on4)c3)ncnc2cc1OC1CCN(CC(F)F)CC1"
readout_value = "C* (0.20 < C ≦ 0.40)"


Incoming: Name the recorded S35 of the item `COc1cc2ncnc(Oc3cccc(NC(=O)Nc4cccc(C(C)C)c4)c3)c2cc1OC` in your answer.
Outgoing: C* (0.20 < C ≦ 0.40)

Incoming: Consider the compound `COc1cc2c(Oc3cccc(NC(=O)Nc4cc(C(C)(C)C)on4)c3)ncnc2cc1O[C@H]1CCN(CC(F)(F)F)C1` . State its measured S35.
Outgoing: B* (0.10 < B ≦ 0.20)

Incoming: Please supply the value of reported S35 for the item `CCOc1cccc(NC(=O)Nc2cccc(Oc3ncnc4cc(OC)c(OC)cc34)c2)c1`
Outgoing: B* (0.10 < B ≦ 0.20)
